Where do the numbers come from? From patent US11040963B2.

- ASSAY_SYSTEM: HA H1 A/California/07/09 (Influenza A virus (A/California/07/2009(H1N1)), UniProt C3W5X2)
- ASSAY_COMMENT: biochemical
- CONDITION_DETAILS: Competition binding (AlphaLISA), pIC50 H1 A/California/07/09
ASSAY_READOUT: pIC50
Keep it numeric: pIC50 is minus log10 of the concentration in mol/L.

q: Recorded pIC50 for "COc1nnc([C@@H](c2ccccc2)N2CCN(C(=O)c3cc(-c4nc5cc(OC(F)(F)F)ccc5o4)ccn3)CC2)o1" , please?
a: 7.90

q: Reported pIC50 for O=C(c1cccc(-c2nc3cc(C(F)(F)F)ccc3o2)c1)N1CCN(C(c2ccccc2)c2nnco2)CC1 (stereo not shown) : what is it?
a: 6.40

q: Can you look up the measured pIC50 of "COC(=O)[C@@H](c1ccccc1)N1CCN(C(=O)c2cccc(-c3nc4cc(C(F)(F)F)ccc4o3)c2)[C@H](C(N)=O)C1" for me?
a: 6.30

q: Returns the measured pIC50 for the input compound. Input: Cc1nnc(C(c2ccccc2)N2CCN(C(=O)c3ccnc(-c4nc5cc(C(F)(F)F)ccc5o4)c3)CC2)o1 (stereo not shown)
a: 6.20

q: I would be grateful if you could share the reported pIC50 for CNC(=O)C(c1ccccc1)N1CCN(C(=O)c2cccc(-c3nc4ccc(OC)cc4s3)c2)CC1 (stereo not shown) .
a: 6.70

q: Reported pIC50 for COc1ccc2nc(-c3cccc(C(=O)N4CCN(C(c5ccccc5)c5ncco5)CC4)c3)sc2c1 (stereo not shown) : what is it?
a: 6.70

q: Quick one: pIC50 for COC(=O)C(c1ccccc1)N1CCN(C(=O)c2cccc(-c3nc4cc(Cl)ccc4o3)c2)CC1 (stereo not shown) ?
a: 7.20

---

- ASSAY_SYSTEM: HA H1 A/New Caledonia/20/99 (Influenza A virus (A/New Caledonia/20/1999(H1N1)), UniProt Q6WG00)
- ASSAY_COMMENT: biochemical
- CONDITION_DETAILS: Competition binding (AlphaLISA), pIC50 H1 A/New Caledonia/20/99
Provide the recorded pIC50 for the entries that follow.
Convention used: pIC50 is expressed as -log10 of the molar concentration.

q: # lookup: pIC50 of COc1ccc2nc(-c3cccc(C(=O)N4CCN(C(c5ccccc5)c5nnn(C)n5)CC4)c3)sc2c1 (stereo not shown)
a: 6.90

q: Return reported pIC50; argument: Cc1nnc(C(c2ccccc2)N2CCN(C(=O)c3cccc(-c4nc5cc(N(C)C)ccc5o4)c3)CC2)o1 (stereo not shown)
a: 7.80

q: I'd like to know its pIC50. The compound in question is Cn1ccc(C(c2ccccc2)N2CCN(C(=O)c3cccc(-c4nc5cc(C(F)(F)F)ccc5o4)c3)CC2)n1 (stereo not shown)
a: 5.40

q: Entry COc1ccc2nc(-c3cccc(C(=O)N4CCN(C(CO)c5ccccc5)CC4)c3)sc2c1 (stereo not shown) has what pIC50?
a: 6.90

q: If you can, please state the reported pIC50 value of COC(=O)C(c1ccncc1)N1CCN(C(=O)c2cccc(-c3nc4ccc(OC)cc4s3)c2)CC1 (stereo not shown) .
a: 6.70

q: If you can, please state the reported pIC50 value of COC(=O)C(c1ccccc1)N1CCN(C(=O)c2cccc(-c3nc4cc(Cl)ccc4o3)c2)CC1 (stereo not shown) .
a: 7.20

q: // returns reported pIC50 for input COC(=O)C(c1ccccc1)C1CCN(C(=O)c2cccc(-c3nc4ccc(OC)cc4[nH]3)c2)CC1 (stereo not shown)
a: 6.30
